Provenance of the data: ChEMBL document CHEMBL1201862

- targetUnderTest: Polyadenylate-binding protein 1 (Homo sapiens)
- Sequence (P11940 whole entry, the tested form may be a part): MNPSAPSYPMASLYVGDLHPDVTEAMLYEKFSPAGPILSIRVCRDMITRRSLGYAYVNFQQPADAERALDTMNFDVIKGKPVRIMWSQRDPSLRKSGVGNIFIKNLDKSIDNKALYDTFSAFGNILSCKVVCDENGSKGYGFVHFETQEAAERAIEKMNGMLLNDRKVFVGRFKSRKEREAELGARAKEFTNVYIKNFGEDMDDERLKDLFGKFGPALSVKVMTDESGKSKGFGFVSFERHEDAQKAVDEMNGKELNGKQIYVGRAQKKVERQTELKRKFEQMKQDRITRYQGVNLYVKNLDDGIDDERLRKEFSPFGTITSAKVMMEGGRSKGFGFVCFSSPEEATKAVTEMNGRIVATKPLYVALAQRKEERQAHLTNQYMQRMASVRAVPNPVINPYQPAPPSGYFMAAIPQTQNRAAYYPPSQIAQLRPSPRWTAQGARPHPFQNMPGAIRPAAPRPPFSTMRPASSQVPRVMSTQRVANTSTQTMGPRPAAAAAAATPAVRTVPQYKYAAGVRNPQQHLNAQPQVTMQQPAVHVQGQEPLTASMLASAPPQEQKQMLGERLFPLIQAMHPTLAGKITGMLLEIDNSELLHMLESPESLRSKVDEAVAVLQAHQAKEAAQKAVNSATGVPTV
- procedureText: MLLE domain peptide-binding blockers, IC50 – biochemical, fluorescence polarization, FITC-PAM2 peptide, dose response (AID 602259)
- Type: functional
- statedConditions: read-out: IC50_Mean
Calls of active or inactive are those of the source.
Possible outcomes: active, inactive

[
  {
    "compound": "CC1CCCN(c2nc3ccccc3nc2C(C#N)S(=O)(=O)c2cccs2)C1 (stereo not drawn)",
    "class": "inactive"
  },
  {
    "compound": "O=C(NN=Cc1sc(=O)[n-]c1-[n+]1ccccc1)c1ccccc1O",
    "class": "inactive"
  },
  {
    "compound": "COc1ccc(NC(=O)Nc2ccc(OCc3ccccc3)cc2)cn1",
    "class": "active"
  },
  {
    "compound": "Cc1nc(NC(=S)NC(=O)c2ccccc2)sc1C(=O)N(C)C",
    "class": "inactive"
  },
  {
    "compound": "CCCc1nc2ccc(Cl)cn2c1Cc1ccsc1",
    "class": "inactive"
  },
  {
    "compound": "O=C(O)CNC(=O)CC1SC(NN=C2CSC(=O)N2)=NC1=O (stereo not drawn)",
    "class": "inactive"
  },
  {
    "compound": "CCN(CC)S(=O)(=O)c1ccc2c(c1)nc(SCn1nnc3ccccc3c1=O)n2CC",
    "class": "inactive"
  },
  {
    "compound": "O=CNc1ccc2c3c(cccc13)-c1ccccc1-2",
    "class": "inactive"
  }
]

====

- Test system: Streptococcus sp. 'group A'
- procedureText: Streptococcus pyogenes SK(-)GAS viability under kanamycin – luminescence, BacTiterGlo, confirmation, counter-screen for streptokinase expression inhibitor project, dose response (AID 1900)
- Type: functional, organism-based
Calls of active or inactive are those of the source.

[
  {
    "compound": "CCOC(=O)c1cnc(-n2nc(C)cc2C)nc1NC1CCCCC1",
    "EC50": "1820 nM (active)"
  },
  {
    "compound": "CC1CCN(C(=O)c2ccc3c(c2)NC(=O)/C(=C/c2ccccc2)S3)CC1",
    "EC50": "2640 nM (active)"
  },
  {
    "compound": "CC(=O)Oc1ccccc1C1=NN(C(=O)/C=C/c2ccccc2)C(c2ccccc2)C1 (centres undefined)",
    "EC50": "17100 nM (active)"
  },
  {
    "compound": "Cc1cc(C)c2nc(N3C(=O)C(O)=C(C(=O)c4ccco4)C3c3ccco3)sc2c1 (centres undefined)",
    "EC50": "2520 nM (active)"
  },
  {
    "compound": "Cc1sc2ncnc(N3CCC(C(=O)NCC(=O)Nc4ccc(F)c(F)c4)CC3)c2c1C",
    "EC50": "4440 nM (active)"
  },
  {
    "compound": "Cc1ccc(C[n+]2c(-c3ccc(C)cc3)cc(-c3ccc(C)cc3)cc2-c2ccc(C)cc2)cc1.[O-][Cl+3]([O-])([O-])[O-]",
    "EC50": "3710 nM (active)"
  },
  {
    "compound": "CC1(C(=O)NC(=S)NNC(=O)c2ccncc2)CCCCC1",
    "EC50": "1590 nM (active)"
  },
  {
    "compound": "COc1cc(/C=N/Nc2nc(Nc3ccc(C)cc3)nc(-n3nc(C)cc3C)n2)cc(OC)c1OC",
    "EC50": "1820 nM (active)"
  },
  {
    "compound": "Cc1ccc(Nc2c(-c3ccccn3)nc3cccc(C)n23)cc1",
    "EC50": "770 nM (active)"
  }
]

====

- targetUnderTest: Sentrin-specific protease 8 (Homo sapiens);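 further: luminescence read-out of SENP8 inhibition, dose-response confirmation following an ultra-high-throughput screen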
- Sequence (Q96LD8 whole entry): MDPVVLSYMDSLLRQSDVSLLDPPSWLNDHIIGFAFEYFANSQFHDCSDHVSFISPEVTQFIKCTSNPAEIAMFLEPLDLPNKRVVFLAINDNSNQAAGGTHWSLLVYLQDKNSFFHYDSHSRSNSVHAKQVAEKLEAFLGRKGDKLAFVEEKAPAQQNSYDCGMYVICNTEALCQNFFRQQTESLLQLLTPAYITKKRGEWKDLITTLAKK
- Assay type: functional
Calls of active or inactive are those of the source.
Possible outcomes: Yes for active, No for inactive

[
  {
    "smilesStr": "O=C(Nc1nc(=O)c2ccccc2s1)c1ccccc1",
    "class": "No"
  },
  {
    "smilesStr": "COc1cccc(C(=O)OCC(=O)c2ccc(Br)s2)c1",
    "class": "Yes"
  },
  {
    "smilesStr": "c1ccc2nc(-c3ccc(-n4ccnc4)cc3)ccc2c1",
    "class": "Yes"
  },
  {
    "smilesStr": "N=C1/C(=C/c2cccs2)C(=O)N=C2SN=C(SCc3ccccc3)N12",
    "class": "Yes"
  },
  {
    "smilesStr": "CCSc1nsc(NC(=O)Nc2ccccc2F)n1",
    "class": "Yes"
  },
  {
    "smilesStr": "CC(/C=C1\\SC(=S)N(NS(=O)(=O)c2ccc(C)cc2)C1=O)=C\\c1ccccc1",
    "class": "Yes"
  },
  {
    "smilesStr": "Cc1ccc(NC2=C(NCCO)C(=O)c3ccccc3C2=O)cc1",
    "class": "Yes"
  },
  {
    "smilesStr": "O=C(Nc1ccc(Cl)cc1)Nc1nccs1",
    "class": "Yes"
  },
  {
    "smilesStr": "Nc1[nH]n(-c2ccccc2)c(=O)c1N=Nc1ccccc1",
    "class": "No"
  }
]

====

Known AC50 of a selection of compounds
- targetUnderTest: Cytochrome P450 2D6 (Homo sapiens, UniProt P10635);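 further: CYP2D6 member of a cytochrome P450 panel assay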
- Sequence (P10635 whole entry): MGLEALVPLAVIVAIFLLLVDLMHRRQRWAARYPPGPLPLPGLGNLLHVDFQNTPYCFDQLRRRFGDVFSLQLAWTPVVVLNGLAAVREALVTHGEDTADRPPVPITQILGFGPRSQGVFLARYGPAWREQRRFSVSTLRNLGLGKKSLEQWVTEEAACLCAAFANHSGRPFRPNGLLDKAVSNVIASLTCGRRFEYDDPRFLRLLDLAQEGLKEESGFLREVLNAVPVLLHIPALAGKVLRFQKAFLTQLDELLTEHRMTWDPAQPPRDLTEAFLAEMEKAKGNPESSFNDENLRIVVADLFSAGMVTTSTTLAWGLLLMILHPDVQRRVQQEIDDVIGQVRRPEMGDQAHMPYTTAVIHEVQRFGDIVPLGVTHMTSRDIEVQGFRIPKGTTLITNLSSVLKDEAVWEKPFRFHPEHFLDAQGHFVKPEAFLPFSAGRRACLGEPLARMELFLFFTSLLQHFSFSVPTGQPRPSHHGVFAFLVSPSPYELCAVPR
Calls of active or inactive are those of the source.

[
  {
    "compound": "Cc1ccc(-n2c(C)nc3c(cnn3-c3ccc(F)cc3)c2=O)cc1C",
    "AC50": "15.8 µM (inconclusive)"
  },
  {
    "compound": "Cc1ccc(CNC(=O)CN2C(=O)COc3ccc(C)cc32)cc1",
    "AC50": "28.2 µM (inconclusive)"
  },
  {
    "compound": "CCn1c2ccccc2c2cc(NC(=O)C/C(C)=N/NC(=O)c3ccccc3N)ccc21",
    "AC50": "25.1 µM (inconclusive)"
  },
  {
    "compound": "Cc1ccccc1Cn1c(Cc2ccccc2)nc2ccccc21",
    "AC50": "31.6 µM (inconclusive)"
  },
  {
    "compound": "CNCC/C=C\\c1cccnc1",
    "AC50": "15.8 µM (inconclusive)"
  },
  {
    "compound": "CN1CC(c2ccccc2)C2(COc3ccccc3C2=O)C12C(=O)Nc1ccccc12 (centres undefined)",
    "AC50": "20 µM (inconclusive)"
  },
  {
    "compound": "N=C1/C(=C/c2cccs2)C(=O)N=C2SN=C(SCc3ccccc3)N12",
    "AC50": "25.1 µM (inconclusive)"
  },
  {
    "compound": "O=C(Nc1ccc(Cl)cc1)Nc1nccs1",
    "AC50": "31.6 µM (inconclusive)"
  },
  {
    "compound": "Nc1nc(OCc2ccccc2)c2[nH]cnc2n1",
    "AC50": "0.501 µM (inconclusive)"
  },
  {
    "compound": "Cc1ccc(S(=O)(=O)Nc2cc(O)nc3c2CCC3)cc1",
    "AC50": "2.51 µM (inconclusive)"
  },
  {
    "compound": "COc1ccc(NC(=O)NCc2cccn2C)c(OC)c1",
    "AC50": "0.501 µM (inconclusive)"
  },
  {
    "compound": "O=C(CS(=O)(=O)c1cccc(Cl)c1)Nc1ccccc1Cl",
    "AC50": "17.8 µM (inconclusive)"
  },
  {
    "compound": "COc1ccccc1CNc1nc(-c2ccoc2)nc2ccccc12",
    "AC50": "6.31 µM (active)"
  },
  {
    "compound": "CCCCn1nnnc1SCC(=O)c1cc(Cl)ccc1OC",
    "AC50": "22.4 µM (inconclusive)"
  },
  {
    "compound": "CCCSc1nc(C)cc(C)c1S(=O)(=O)c1ccccc1C",
    "AC50": "39.8 µM (inconclusive)"
  },
  {
    "compound": "CCOC(=O)c1ccc(CNC(=O)C2CCCCC2C(=O)OCC(F)(F)F)o1 (centres undefined)",
    "AC50": "25.1 µM (inconclusive)"
  },
  {
    "compound": "Cc1cccc(CNc2ncncc2-c2cccnc2)c1",
    "AC50": "25.1 µM (inconclusive)"
  },
  {
    "compound": "C[C@H](CN(C)C)C(C#N)(c1ccccc1)c1ccccc1",
    "AC50": "3.16 µM (inconclusive)"
  },
  {
    "compound": "O=c1c2ccccc2c(-c2ccccc2)nn1-c1ccc(Cl)c(Cl)c1",
    "AC50": "10 µM (inconclusive)"
  },
  {
    "compound": "CN(C)c1ncc2nc(-c3cccc(C#N)c3)c(=O)n(C[C@H]3CCCO3)c2n1",
    "AC50": "2.51 µM (inconclusive)"
  },
  {
    "compound": "Cc1noc(C)c1C(=O)N1CCC2(CC1)CCN(c1ccncc1)CC2",
    "AC50": "12.6 µM (inconclusive)"
  },
  {
    "compound": "COc1ncc2nc(C)c(=O)n(Cc3cccs3)c2n1",
    "AC50": "25.1 µM (inconclusive)"
  },
  {
    "compound": "FC(F)(F)c1cc(Sc2ccccc2)nc(-c2ccccn2)n1",
    "AC50": "11.2 µM (inconclusive)"
  },
  {
    "compound": "O=c1c(-c2cccc(Cl)c2)nc2cncnc2n1Cc1ccccc1Cl",
    "AC50": "15.8 µM (inconclusive)"
  }
]
